target: huLTBP1 proTGFβ1 (Homo sapiens, UniProt P01137+Q14766); experiment: SPR (Biacore 8K) monovalent binding kinetics of Fabs, biotinylated antigen captured; parameters: biotin (complex biotinylated); conditions: Fab, huLTBP1 proTGFβ1; SR-AB42-HuFab average of five, SR-AB63-HuFab average of four replicate experiments
Sequence (P01137 30-390): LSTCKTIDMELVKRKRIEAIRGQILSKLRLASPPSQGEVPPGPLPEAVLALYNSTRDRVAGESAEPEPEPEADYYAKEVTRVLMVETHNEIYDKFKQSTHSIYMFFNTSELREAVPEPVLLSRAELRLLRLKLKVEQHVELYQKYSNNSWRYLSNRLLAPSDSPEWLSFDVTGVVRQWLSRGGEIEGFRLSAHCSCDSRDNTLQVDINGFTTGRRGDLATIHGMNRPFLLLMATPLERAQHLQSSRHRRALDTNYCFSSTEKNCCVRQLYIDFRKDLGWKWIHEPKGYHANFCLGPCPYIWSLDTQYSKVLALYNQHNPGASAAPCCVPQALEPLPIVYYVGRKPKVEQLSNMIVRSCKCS
Sequence (Q14766 347-1721 limits assumed): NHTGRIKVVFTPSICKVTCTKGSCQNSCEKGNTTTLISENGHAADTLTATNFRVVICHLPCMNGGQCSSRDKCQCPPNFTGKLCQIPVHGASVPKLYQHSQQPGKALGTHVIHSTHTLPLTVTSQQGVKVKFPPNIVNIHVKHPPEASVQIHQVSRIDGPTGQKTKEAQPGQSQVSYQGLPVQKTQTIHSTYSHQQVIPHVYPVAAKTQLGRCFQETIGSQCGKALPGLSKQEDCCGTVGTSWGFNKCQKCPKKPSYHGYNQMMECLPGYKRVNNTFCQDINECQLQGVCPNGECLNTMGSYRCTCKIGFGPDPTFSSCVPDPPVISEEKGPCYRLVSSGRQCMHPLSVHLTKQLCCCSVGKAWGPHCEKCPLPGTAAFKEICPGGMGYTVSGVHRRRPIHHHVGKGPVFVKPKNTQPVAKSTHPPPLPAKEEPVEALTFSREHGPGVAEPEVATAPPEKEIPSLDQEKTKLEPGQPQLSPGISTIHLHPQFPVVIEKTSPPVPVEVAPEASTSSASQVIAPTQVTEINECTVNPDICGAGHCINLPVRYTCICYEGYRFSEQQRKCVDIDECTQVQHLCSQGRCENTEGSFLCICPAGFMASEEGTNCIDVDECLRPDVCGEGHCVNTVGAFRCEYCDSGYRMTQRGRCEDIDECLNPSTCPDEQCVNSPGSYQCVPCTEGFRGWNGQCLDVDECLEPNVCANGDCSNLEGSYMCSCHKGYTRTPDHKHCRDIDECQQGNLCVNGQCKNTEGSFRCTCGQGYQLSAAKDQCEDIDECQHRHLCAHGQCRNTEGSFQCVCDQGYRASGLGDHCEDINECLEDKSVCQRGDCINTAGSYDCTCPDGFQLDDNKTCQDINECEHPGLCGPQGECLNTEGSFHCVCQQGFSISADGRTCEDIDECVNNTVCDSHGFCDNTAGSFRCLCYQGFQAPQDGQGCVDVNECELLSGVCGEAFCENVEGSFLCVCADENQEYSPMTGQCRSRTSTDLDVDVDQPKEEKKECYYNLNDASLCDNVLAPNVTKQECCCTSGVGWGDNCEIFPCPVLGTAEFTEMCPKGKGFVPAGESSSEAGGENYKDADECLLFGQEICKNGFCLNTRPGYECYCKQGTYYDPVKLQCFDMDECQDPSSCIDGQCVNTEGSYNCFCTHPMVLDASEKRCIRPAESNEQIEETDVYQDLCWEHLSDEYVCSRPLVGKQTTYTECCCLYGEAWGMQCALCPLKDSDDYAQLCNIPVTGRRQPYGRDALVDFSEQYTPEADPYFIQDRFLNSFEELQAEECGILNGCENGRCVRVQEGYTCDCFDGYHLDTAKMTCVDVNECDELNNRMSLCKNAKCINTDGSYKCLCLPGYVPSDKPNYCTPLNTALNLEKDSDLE
Exercise: for every item that follows, state its recorded kd.
Write the value in s⁻¹ as a bare number.

// kd lookup, molecule = SR-AB58-HuFab (antibody, V domains shown) VH: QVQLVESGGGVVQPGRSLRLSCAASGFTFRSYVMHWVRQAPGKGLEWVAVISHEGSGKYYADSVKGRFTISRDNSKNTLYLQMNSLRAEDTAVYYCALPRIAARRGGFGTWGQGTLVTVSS VL: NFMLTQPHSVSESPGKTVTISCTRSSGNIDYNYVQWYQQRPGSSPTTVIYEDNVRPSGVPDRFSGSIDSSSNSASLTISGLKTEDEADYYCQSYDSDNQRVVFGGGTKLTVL , result: 0.000162

// kd lookup, molecule = SR-AB48-HuFab (antibody, V domains shown) VH: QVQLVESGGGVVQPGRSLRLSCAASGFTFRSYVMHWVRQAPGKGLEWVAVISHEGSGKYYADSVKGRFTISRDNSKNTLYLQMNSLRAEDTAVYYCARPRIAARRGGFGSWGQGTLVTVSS VL: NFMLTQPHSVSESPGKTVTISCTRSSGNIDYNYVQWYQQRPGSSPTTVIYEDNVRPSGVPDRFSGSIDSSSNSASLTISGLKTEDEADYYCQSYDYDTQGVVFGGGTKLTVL , result: 0.000104

// kd lookup, molecule = SR-AB63-HuFab: human Fab fragment of SR-AB63 used in SPR (antibody, V domains shown) VH: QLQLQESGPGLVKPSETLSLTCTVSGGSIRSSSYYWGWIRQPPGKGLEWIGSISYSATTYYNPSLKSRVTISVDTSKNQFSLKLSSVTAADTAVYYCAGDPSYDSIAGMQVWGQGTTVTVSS VL: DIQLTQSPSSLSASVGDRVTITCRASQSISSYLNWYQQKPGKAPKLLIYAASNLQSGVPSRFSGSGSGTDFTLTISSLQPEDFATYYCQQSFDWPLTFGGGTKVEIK , result: 3.82e-08

// kd lookup, molecule = SR-AB54-HuFab (antibody, V domains shown) VH: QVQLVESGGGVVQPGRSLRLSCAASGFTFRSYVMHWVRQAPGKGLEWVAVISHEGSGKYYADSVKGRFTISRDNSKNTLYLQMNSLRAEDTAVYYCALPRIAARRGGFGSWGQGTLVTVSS VL: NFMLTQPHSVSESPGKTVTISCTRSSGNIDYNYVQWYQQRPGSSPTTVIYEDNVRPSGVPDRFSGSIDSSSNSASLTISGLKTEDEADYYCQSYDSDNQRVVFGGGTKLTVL , result: 8.83e-05
